Species: Homo sapiens
Assay Explanation: Stability in human plasma assessed as compound remaining after 90 mins relative to basal level
Value Type: remaining at 1.5 h

>>> value("COC[C@H]1OC(=O)/C(=C\\N(C)CCCN(C)C)C2=C(O)C(=O)C3=C([C@H](OC(C)=O)C[C@]4(C)[C@@H](OC(=O)CCCCCCC(=O)O[C@@H]5CC[C@@H](C[C@@H](C)[C@@H]6CC(=O)[C@H](C)/C=C(\\C)[C@@H](O)[C@@H](OC)C(=O)[C@H](C)C[C@H](C)/C=C/C=C/C=C(\\C)[C@@H](OC)C[C@@H]7CC[C@@H](C)[C@@](O)(O7)C(=O)C(=O)N7CCCC[C@H]7C(=O)O6)C[C@H]5OC)CC[C@@H]34)[C@]21C")
"82%"
